# EXPERIMENTAL PROTOCOL: Half life in cynomolgus monkey at 0.5 mg/kg, iv
# Assay type: ADME, organism-based, Macaca fascicularis
# Set-up: dose 0.5 mg/kg, route intravenous
# CONDITIONS: in vivo
MEASURED METRIC: half-life (h)
Answer format: numeric, h implied, no suffix.

// `CC1(C)Oc2nc(C(F)(F)F)nc(N)c2N=C1c1ccc2c(c1)CC[C@]21CC[C@@H](CC(=O)O)CC1` : half-life value = 15.4

====

Exercise: for every item that follows, state its recorded half-life.
# EXPERIMENTAL PROTOCOL: Half life in CD1 mouse at 0.5 mg/kg, iv
# Type: ADME, organism-based
# Parameters: dose 0.5 mg/kg, route intravenous
# CONDITIONS: in vivo
Your answer is read as h, so omit the unit and give the number.

Item: `CC1(C)Oc2ncnc(N)c2N=C1c1ccc([C@H]2CC[C@H](CC(=O)O)CC2)cc1` | half-life: 4.7

Looking up `CC1(C)Oc2nc(C(F)(F)F)nc(N)c2N=C1c1ccc2c(c1)CC[C@]21CC[C@@H](CC(=O)O)CC1` , I found its half-life recorded as 4.4
